test system: HCMV (strain AD169); experiment: Inhibition of HCMV replication, plaque reduction assay (PRA, Hs-68 cells); assay type: cell-based, Human Cytomegalovirus (HCMV); settings: Human betaherpesvirus 5, AD169, Hs68, Group 1 Table 1 entries, read-out: PRA CMV EC50
Hi! Could you tag entries with EC50 below 20 µM as 1, and those at or above as -1? Much appreciated.

Before answering, review these 2 worked examples.
In the record for Nc1nc(-c2ccc(NC(=O)CN(CCc3ccccc3)C(=O)c3ccncc3)cc2)cs1 , is EC50 less than 20 µM?
-1

Quick check: does Nc1nc(-c2ccc(NC(=O)CN(Cc3ccccc3)S(=O)(=O)c3ccccc3)cc2)cs1 have EC50 under 20 µM?
1

***
Hi there! Is EC50 for Cc1ccccc1CN(CC(=O)Nc1ccc(-c2csc(N)n2)cc1)C(=O)Cc1cccs1 below 20 µM, do you know?
1

In the record for Nc1nc(-c2ccc(NC(=O)CN(CCc3ccccn3)C(=O)C3CCCCC3)cc2)cs1 , is EC50 less than 20 µM?
1

Identify whether the molecule C[C@H](c1ccccc1)N(CC(=O)Nc1ccc(-c2csc(N)n2)cc1)C(=O)C1CCCCC1 records EC50 below 20 µM.
1

Say whether its EC50 is strictly beneath 20 µM. Entry: Nc1nc(-c2ccc(NC(=O)CN(Cc3ccccc3)C(=O)CC3CCCCC3)cc2)cs1
1

Strictly below 20 µM in EC50? Nc1nc(-c2ccc(NC(=O)CN(Cc3ccc(F)cc3)C(=O)Cc3ccccn3)cc2)cs1
-1

* * *

target: HSV-1 helicase-primase (Human herpesvirus 1, UniProt P10189+P10236); construct: made in house; host or cells: Sf21 insect cells triply infected with recombinant baculoviruses (UL5, UL8, UL52); assay: HSV-1 DNA-dependent ATPase assay (inhibition of HSV-1 helicase-primase); assay type: biochemical; conditions: Group 1 Table 1 entries
Sequence (P10192 whole entry): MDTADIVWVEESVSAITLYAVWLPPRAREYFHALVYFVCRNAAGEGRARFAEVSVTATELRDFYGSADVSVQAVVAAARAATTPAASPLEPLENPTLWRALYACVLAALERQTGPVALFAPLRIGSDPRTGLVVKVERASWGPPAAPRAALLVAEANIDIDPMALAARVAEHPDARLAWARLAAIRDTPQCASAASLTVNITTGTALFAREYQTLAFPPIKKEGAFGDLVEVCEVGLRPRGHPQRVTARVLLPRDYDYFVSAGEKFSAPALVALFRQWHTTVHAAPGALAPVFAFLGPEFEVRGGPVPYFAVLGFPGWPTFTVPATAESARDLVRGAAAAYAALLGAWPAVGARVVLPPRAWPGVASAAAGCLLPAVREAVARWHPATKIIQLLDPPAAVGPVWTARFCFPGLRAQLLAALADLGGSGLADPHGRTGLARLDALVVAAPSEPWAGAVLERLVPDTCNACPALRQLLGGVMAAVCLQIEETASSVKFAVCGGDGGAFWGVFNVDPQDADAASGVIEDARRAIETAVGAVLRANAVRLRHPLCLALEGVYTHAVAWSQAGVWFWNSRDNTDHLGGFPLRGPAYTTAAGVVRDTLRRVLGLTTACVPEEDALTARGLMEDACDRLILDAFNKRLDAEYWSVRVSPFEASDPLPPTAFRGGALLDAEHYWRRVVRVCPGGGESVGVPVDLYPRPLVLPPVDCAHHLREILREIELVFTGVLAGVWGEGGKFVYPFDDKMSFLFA
Sequence (P10236 whole entry): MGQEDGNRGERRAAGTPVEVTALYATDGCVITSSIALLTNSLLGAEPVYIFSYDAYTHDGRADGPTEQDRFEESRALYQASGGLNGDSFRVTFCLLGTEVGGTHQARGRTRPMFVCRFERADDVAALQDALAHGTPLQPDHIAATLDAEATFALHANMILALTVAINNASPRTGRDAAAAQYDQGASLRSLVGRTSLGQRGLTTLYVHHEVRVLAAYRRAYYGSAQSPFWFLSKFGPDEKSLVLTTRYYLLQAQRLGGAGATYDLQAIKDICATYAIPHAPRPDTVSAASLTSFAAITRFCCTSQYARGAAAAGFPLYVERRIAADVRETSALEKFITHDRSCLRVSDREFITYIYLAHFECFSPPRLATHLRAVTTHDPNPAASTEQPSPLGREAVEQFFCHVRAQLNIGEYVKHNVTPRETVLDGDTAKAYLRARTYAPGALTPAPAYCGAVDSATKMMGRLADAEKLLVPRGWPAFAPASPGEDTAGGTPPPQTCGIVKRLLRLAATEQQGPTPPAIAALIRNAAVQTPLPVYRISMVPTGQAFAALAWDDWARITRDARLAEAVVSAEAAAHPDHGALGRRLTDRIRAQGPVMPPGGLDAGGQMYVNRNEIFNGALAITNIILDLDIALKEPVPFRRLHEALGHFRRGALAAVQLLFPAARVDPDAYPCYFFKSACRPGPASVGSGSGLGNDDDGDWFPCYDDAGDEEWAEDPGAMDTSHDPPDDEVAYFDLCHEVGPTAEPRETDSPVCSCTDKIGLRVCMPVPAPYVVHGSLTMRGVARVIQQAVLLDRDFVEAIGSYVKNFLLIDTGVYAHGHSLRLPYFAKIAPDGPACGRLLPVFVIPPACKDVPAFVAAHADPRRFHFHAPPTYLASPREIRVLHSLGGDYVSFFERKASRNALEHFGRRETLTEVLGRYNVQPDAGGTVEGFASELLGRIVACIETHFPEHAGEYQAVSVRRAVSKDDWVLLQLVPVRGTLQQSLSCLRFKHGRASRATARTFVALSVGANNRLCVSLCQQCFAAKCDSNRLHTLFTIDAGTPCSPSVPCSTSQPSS
Sequence (P10189 whole entry): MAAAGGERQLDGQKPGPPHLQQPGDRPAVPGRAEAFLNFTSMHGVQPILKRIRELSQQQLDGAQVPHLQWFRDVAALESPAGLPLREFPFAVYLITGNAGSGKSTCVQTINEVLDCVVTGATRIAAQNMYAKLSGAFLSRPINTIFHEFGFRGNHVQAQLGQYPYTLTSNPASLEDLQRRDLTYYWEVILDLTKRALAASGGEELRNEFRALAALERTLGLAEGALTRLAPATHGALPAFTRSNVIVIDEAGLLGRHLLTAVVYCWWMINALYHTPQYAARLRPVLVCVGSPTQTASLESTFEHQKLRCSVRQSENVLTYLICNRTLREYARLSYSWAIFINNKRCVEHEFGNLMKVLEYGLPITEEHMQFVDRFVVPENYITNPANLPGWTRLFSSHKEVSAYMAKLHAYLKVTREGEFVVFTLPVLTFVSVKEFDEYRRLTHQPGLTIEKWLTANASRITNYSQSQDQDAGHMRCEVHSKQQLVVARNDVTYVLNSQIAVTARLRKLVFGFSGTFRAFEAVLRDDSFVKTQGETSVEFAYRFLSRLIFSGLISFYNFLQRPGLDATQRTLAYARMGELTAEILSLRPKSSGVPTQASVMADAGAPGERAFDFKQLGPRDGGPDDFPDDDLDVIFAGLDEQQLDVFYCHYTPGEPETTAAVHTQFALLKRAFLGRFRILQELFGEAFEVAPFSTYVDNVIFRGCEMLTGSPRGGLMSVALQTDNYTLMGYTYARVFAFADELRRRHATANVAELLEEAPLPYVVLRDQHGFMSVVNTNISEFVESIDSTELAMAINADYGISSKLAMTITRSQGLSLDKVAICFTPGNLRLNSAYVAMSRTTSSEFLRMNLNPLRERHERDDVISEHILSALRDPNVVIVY
pIC50: −log10 of the molar value.
Given measured pIC50, output YES if it is greater than or equal to 6 and NO if not.

Answered examples (5):
Does pIC50 meet or surpass 6 for C[C@@H](c1ccccc1)N(CC(=O)Nc1ccc(-c2csc(N)n2)cc1)C(=O)c1ccncc1 ?
YES

Could you tell me if the measured pIC50 of CC(C)(C)OC(=O)N(CC(=O)Nc1ccc(-c2csc(N)n2)cc1)Cc1ccc(Cl)cc1 reaches 6 or more?
YES

Test whether the compound Cc1ccc(C)c(CN(CC(=O)Nc2ccc(-c3csc(N)n3)cc2)C(=O)c2ccncc2)c1 records pIC50 of 6 or higher.
YES

Please tell me: is the compound Nc1nc(-c2ccc(NC(=O)CNC(=O)c3cccnc3)cc2)cs1 at or over 6 in terms of pIC50?
NO

Could you tell me if the measured pIC50 of Nc1nc(-c2ccc(NC(=O)CN(Cc3ccccc3)C(=O)Cc3ccccc3)cc2)cs1 reaches 6 or more?
YES

***
Evaluate Nc1nc(-c2ccc(NC(=O)CNCCN3CCOCC3)cc2)cs1 : pIC50 at minimum 6?
NO

Reported pIC50 at or above 6? Nc1nc(-c2ccc(NC(=O)CN(Cc3ccccc3)C(=O)Cc3cccnc3)cc2)cs1
NO

* * *

target: HSV-1 helicase-primase (Human herpesvirus 1, UniProt P10189+P10236); construct: made in house; host or cells: Sf21 insect cells triply infected with recombinant baculoviruses (UL5, UL8, UL52); assay: HSV-1 DNA-dependent ATPase assay (inhibition of HSV-1 helicase-primase); format: biochemical; settings: Group 1 Table 1 entries
Listed compounds paired with reported pIC50
Recall that pIC50 is obtained by taking minus log10 of the concentration measured in molar.

Check out these entries, answers already filled in.
Data request, read-out pIC50, for Nc1nc(-c2ccc(NC(=O)CNCC3CCCCC3)cc2)cs1
5.54

Form field: reported pIC50 of Nc1nc(-c2ccc(NC(=O)CNC(=O)c3ccncc3)cc2)cs1
5.38

Others:
Item under review: Nc1nc(C(=O)N(CC(=O)Nc2ccc(-c3csc(N)n3)cc2)Cc2ccccc2)cs1 . Reported pIC50?
6.34

Name the recorded pIC50 for Cc1nc(CCN(CC(=O)Nc2ccc(-c3csc(N)n3)cc2)C(=O)c2ccncc2)cs1 .
5.34

Bench note: what pIC50 did C[C@@H](c1ccccc1)N(CC(=O)Nc1ccc(-c2csc(N)n2)cc1)C(=O)c1cccnc1 show?
6.59

* * *

experiment: Inhibition of HCMV replication, plaque reduction assay (PRA, Hs-68 cells); assay type: cell-based, Human Cytomegalovirus (HCMV); conditions: human, Group 1 Table 2 entries, read-out: Cytotoxic at this concentration (footnote, PRA CMV)
The threshold is 9 µM. Values of MCC at 192 h beneath it are tagged True; values meeting or exceeding it are tagged False.

The examples below pair each entry with its known result.
Find out if reported MCC at 192 h for Nc1nc(-c2ccc(NC(=O)CCN(Cc3ccccc3)C(=O)C3CCCCC3)cc2)cs1 [Example 8] is less than 9 µM
False

Quick check: MCC at 192 h of Nc1nc(-c2ccc(NC(=O)CCNCC3CCCCC3)cc2)cs1 [Example 22] under 9 µM?
True

Is it true that MCC at 192 h reported for Nc1nc(-c2ccc(NC(=O)CCNC3Cc4ccccc4C3)cc2)cs1 [Example 10] is less than 9 µM?
False

More entries:
Is the reported MCC at 192 h for Nc1nc(-c2ccc(NC(=O)CCN(Cc3ccccc3)C(=O)OCc3ccccc3)cc2)cs1 [Example 16] strictly below 9 µM?
True

Record Nc1nc(-c2ccc(NC(=O)CCNCc3cccc(F)c3)cc2)cs1 [Example 4] : is its MCC at 192 h strictly below 9 µM?
True

* * *

tested on: HCMV (strain AD169); assay: Inhibition of HCMV replication, ELISA assay (Hs-68 cells); format: cell-based, Human Cytomegalovirus (HCMV); conditions: Human betaherpesvirus 5, AD169, Hs68, Group 2 Table 1 entries, read-out: ELISA CMV EC50
Quantity Name: pEC50
# pEC50 = -log10(concentration in molar units)

Looking for the measured pEC50 of Nc1nc(-c2ccc(NC(=O)NN3CCCCC3)cc2)cs1 [Example 27] , can you help?
4.81

I am curious: what pEC50 value has been reported for CN(CCc1ccccn1)C(=O)Nc1ccc(-c2csc(N)n2)cc1 [Example 4] ?
3.90

Recorded pEC50 of CCCC(CCC)NC(=O)Nc1ccc(-c2csc(N)n2)cc1 [Example 11] , please.
5.89

Name the reported pEC50 value associated with the molecule CN(CCc1ccccn1)C(=O)Nc1ccc(-c2csc(NC(=O)OC(C)(C)C)n2)cc1 [Example 14]
5.82

Give its pEC50 value. Item: CN(CCc1ccccn1)C(=O)[C@H](Cc1ccccc1)NC(=O)Nc1ccc(-c2csc(N)n2)cc1 [Example 9]
5.39

Further cases:
Data request, read-out pEC50, for CCCCN(CCCC)C(=O)Nc1ccc(-c2csc(NC(=O)OC(C)(C)C)n2)cc1 [Example 15]
6.00

If you can, please state the reported pEC50 value of CCCCNC(=O)Nc1ccc(-c2csc(N)n2)cc1 [Example 2] .
6.22

# pEC50 lookup, item CC(C)(C)NC(=O)Nc1ccc(-c2csc(N)n2)cc1 [Example 12]
5.22

Data request, read-out pEC50, for CCCCN(CCCC)C(=O)Nc1ccc(-c2csc(N)n2)cc1 [Example 1]
5.39

* * *

biological target: HSV-1 helicase-primase (Human herpesvirus 1, UniProt P10189+P10236); construct: made in house; host or cells: Sf21 insect cells triply infected with recombinant baculoviruses (UL5, UL8, UL52); test: HSV-1 DNA-dependent ATPase assay (inhibition of HSV-1 helicase-primase); type: biochemical; conditions: Group 1 Table 3 entries
This section presents molecules with their documented IC50 values.
Write the number in µM without appending the unit.

Given the entry CN(C(=O)CNCc1ccccc1)c1ccc(-c2csc(N)n2)cc1 , what IC50 was observed with HSV-1 helicase-primase (Human herpesvirus 1, UniProt P10189+P10236)?
13

Test system HSV-1 helicase-primase (Human herpesvirus 1, UniProt P10189+P10236); read-out IC50; what value for CNc1nc(-c2ccc(NC(=O)CN(Cc3ccccc3)C(=O)C3CCCCC3)cc2)cs1 ?
0.05

What measured IC50 is associated with CNc1nc(-c2ccc(NC(=O)CN(Cc3ccccc3)C(=O)c3ccccc3)cc2)cs1 on HSV-1 helicase-primase (Human herpesvirus 1, UniProt P10189+P10236)?
0.33

What IC50 appears in the records for this molecule with HSV-1 helicase-primase (Human herpesvirus 1, UniProt P10189+P10236)? CN(C(=O)CN(Cc1ccccc1)C(=O)C1CCCCC1)c1ccc(-c2csc(N)n2)cc1
0.053

* * *

molecular target: HSV-1 helicase-primase (Human herpesvirus 1, UniProt P10189+P10236); construct: made in house; host or cells: Sf21 insect cells triply infected with recombinant baculoviruses (UL5, UL8, UL52); experiment: HSV-1 DNA-dependent ATPase assay (inhibition of HSV-1 helicase-primase); assay type: biochemical; conditions: Group 1 Table 1 entries
pIC50: −log10 of the molar value.
Parameter threshold = 6. Response is met when pIC50 meets or exceeds it, else not met.

Recorded results for 5 compounds are shown here.
Is pIC50 for Nc1nc(-c2ccc(NC(=O)CNCCc3ccccc3)cc2)cs1 at or above 6?
not met

Assess whether reported pIC50 for Nc1nc(-c2ccc(NC(=O)CN(CCC3CCCCC3)C(=O)C3CCCCC3)cc2)cs1 sits at 6 or higher.
met

Dear colleague, could you confirm whether Nc1nc(-c2ccc(NC(=O)CN(CC3CCCCC3)C(=O)Cc3ccccc3)cc2)cs1 has pIC50 at or above 6?
met

Form field: pIC50 at least 6? Entry: Nc1nc(-c2ccc(NC(=O)CN(Cc3ccccc3)C(=O)COc3ccccc3)cc2)cs1
met

Could you please find out whether C[C@H](NCC(=O)Nc1ccc(-c2csc(N)n2)cc1)c1ccccc1 has pIC50 that meets 6 or exceeds it?
not met

Could you now consider this next compound?
pIC50 >= 6 for Cc1cccc(CN(CC(=O)Nc2ccc(-c3csc(N)n3)cc2)C(=O)c2ccncc2)c1C ?
met

Data provenance: patent US6288091A
